study_target: human intestinal carboxylesterase in U373MGhiCE cells (Homo sapiens)
Construct: expressed in transfected cells; host or cells: U373MG human glioma cells (U373MGhiCE)
Sequence (O00748 27-559): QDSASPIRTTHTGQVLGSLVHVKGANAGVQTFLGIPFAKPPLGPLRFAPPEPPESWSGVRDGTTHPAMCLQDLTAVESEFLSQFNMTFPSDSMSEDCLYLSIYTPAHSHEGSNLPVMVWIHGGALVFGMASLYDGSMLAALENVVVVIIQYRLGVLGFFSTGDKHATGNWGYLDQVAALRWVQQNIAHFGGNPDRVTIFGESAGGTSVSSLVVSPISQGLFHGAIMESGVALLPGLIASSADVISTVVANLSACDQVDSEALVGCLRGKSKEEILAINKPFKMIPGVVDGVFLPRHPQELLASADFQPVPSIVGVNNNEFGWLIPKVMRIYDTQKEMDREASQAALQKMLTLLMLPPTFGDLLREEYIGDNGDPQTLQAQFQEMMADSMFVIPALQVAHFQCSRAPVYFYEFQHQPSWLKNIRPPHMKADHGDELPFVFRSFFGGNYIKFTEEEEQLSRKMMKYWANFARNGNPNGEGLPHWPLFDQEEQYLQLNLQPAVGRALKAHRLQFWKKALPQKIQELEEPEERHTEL
method_description: Inhibition of intracellular carboxylesterase in U373MGhiCE cells
Type: cell-based
Procedure: To monitor the ability of the compounds to cross the cell membrane and inhibit carboxylesterase activity intracellularly, an assay using human tumor cells expressing hiCE was devised. U373MGhiCE (a human glioma cell line transfected with a plasmid expressing hiCE) were plated in T25 flasks and allowed to grow to confluency (approximately 2-5×10^5 cells). […] Carboxylesterase activity was then determined using o-NPA as a substrate. […]
value_kind: inhibition at 10 µM (%)
Numeric answer only, unit % assumed.

{"compound": "O=S(=O)(Nc1ccc(NS(=O)(=O)c2ccc(Cl)cc2)c2ccccc12)c1ccc(Cl)cc1 [Compound 47]", "study_target": "human intestinal carboxylesterase in U373MGhiCE cells (Homo sapiens)", "inhibition at 10 µM, %": 9.2}

# input Sample O=C(NC(Cc1ccccc1)C(=O)Oc1ccc2ccccc2c1)c1ccccc1 (centres unmarked) [Compound 57] — what was its inhibition at 10 µM?
# output 24.2

---

study_target: human small intestine carboxylesterase (hiCE) (Homo sapiens, UniProt O00748)
Sequence (O00748 27-559): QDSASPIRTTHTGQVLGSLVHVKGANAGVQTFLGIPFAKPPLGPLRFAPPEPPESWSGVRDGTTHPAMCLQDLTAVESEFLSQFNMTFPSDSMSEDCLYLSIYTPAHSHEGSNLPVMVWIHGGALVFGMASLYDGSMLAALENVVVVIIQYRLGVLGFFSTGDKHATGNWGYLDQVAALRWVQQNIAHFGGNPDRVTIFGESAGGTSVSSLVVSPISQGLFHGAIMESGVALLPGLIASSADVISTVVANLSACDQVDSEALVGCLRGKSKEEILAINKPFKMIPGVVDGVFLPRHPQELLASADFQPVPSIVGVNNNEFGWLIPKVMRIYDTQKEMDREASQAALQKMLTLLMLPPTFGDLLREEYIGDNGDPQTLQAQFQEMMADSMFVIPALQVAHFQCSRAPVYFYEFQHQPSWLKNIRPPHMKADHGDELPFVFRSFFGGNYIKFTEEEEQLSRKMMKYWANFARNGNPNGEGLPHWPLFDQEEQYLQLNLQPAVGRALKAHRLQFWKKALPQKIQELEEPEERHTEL
method_description: biochemical
Type: biochemical
settings: selectivity ratio, o-NPA as substrate
value_kind: Ki (hCE1)/Ki (hiCE)

# input Sample Cc1cc(C)c(S(=O)(=O)Nc2ccccc2)cc1S(=O)(=O)Nc1ccccc1 — what was its Ki (hCE1)/Ki (hiCE)?
# output >450

# input Sample O=S(=O)(Nc1c(F)c(F)c(NS(=O)(=O)c2ccc(Cl)cc2)c(F)c1F)c1ccc(Cl)cc1 — what was its Ki (hCE1)/Ki (hiCE)?
# output >2,400

# input Sample O=S(=O)(Nc1c(Cl)c(Cl)c(NS(=O)(=O)c2ccccc2)c(Cl)c1Cl)c1ccccc1 — what was its Ki (hCE1)/Ki (hiCE)?
# output >220

# input Sample Cc1cc(NS(=O)(=O)c2ccccc2)ccc1NS(=O)(=O)c1ccccc1 — what was its Ki (hCE1)/Ki (hiCE)?
# output >250

# input Sample O=S(=O)(Nc1ccc(NS(=O)(=O)c2ccccc2)cc1)c1ccccc1 — what was its Ki (hCE1)/Ki (hiCE)?
# output >90

# input Sample O=S(=O)(Nc1ccc(NS(=O)(=O)c2ccc(Cl)cc2)c2ccccc12)c1ccc(Cl)cc1 — what was its Ki (hCE1)/Ki (hiCE)?
# output >500

# input Sample O=S(=O)(Nc1ccc(NS(=O)(=O)c2ccc(Cl)cc2)cc1)c1ccc(Cl)cc1 — what was its Ki (hCE1)/Ki (hiCE)?
# output >250

# input Sample CS(=O)(=O)Nc1ccc(SSc2ccc(NS(C)(=O)=O)cc2)cc1 — what was its Ki (hCE1)/Ki (hiCE)?
# output >125

# input Sample O=S(=O)(Nc1ccc(Oc2ccccc2)cc1)c1ccc(Br)cc1 — what was its Ki (hCE1)/Ki (hiCE)?
# output >600

# input Sample CCOc1ccc(NS(=O)(=O)c2ccc(Cl)cc2)cc1 — what was its Ki (hCE1)/Ki (hiCE)?
# output >75
